Assay: 6 patient PK study, 50 mg SD, powder in capsule (disclosed method)
Assay type: in vivo, patients
Conditions: human, plasma, oral, 50 mg, disclosed method; 6 patients; 50 mg SD; read-out: Cmax, Mean
Description: In some embodiments, may be similar to the results expected of a crushed tablet. No reduction in the standard error (SE), but only 6 patients may not be adequate to see this range of exposures decrease. An improvement with powder in capsules is that the variation in exposure should also be truncated based on prior crushed tablet study.
EXPERIMENTAL READOUT: Cmax (ng/mL)
Kindly provide the numeric value in ng/mL only, without the unit symbol.

Look at this compound and give its reported Cmax. Cc1ccc(Nc2nccc(N(C)c3ccc4c(C)n(C)nc4c3)n2)cc1S(N)(=O)=O 4120
